assay: DRUGMATRIX: Phorbol Ester radioligand binding (ligand: [3H] PDBu); format: cell membranes, Mus musculus, ICR, Brain, Membrane; conditions: Not Active = under 50% inhibition at 10 µM
Where a SMILES comes first, the peptide text is derived from it. Bridges are numbered along the chain shown (N, C = ends). [ ]: non-standard residue; d: D form. The star is where a group is joined. Threoninol(2S,3R) = C[C@@H](O)[C@H](CO)N*

[
  {
    "compound": "Nc1ccn([C@@H]2CS[C@H](CO)O2)c(=O)n1",
    "Ki": "Not Active"
  },
  {
    "compound": "CN(C)/N=N/c1[nH]cnc1C(N)=O",
    "Ki": "Not Active"
  },
  {
    "compound": "CCC1=C[C@@H]2CN(C1)Cc1c([nH]c3ccccc13)[C@@](C(=O)OC)(c1cc3c(cc1OC)N(C)[C@H]1[C@@](O)(C(=O)OC)[C@H](OC(C)=O)[C@]4(CC)C=CCN5CC[C@]31[C@@H]54)C2",
    "Ki": "Not Active"
  },
  {
    "compound": "CCOC(=O)[C@H](CCc1ccccc1)N[C@H]1CCc2ccccc2N(CC(=O)O)C1=O",
    "Ki": "Not Active"
  },
  {
    "compound": "C[C@@H](O)[C@H](CO)NC(=O)[C@@H]1CSSC[C@H](NC(=O)[C@H](N)Cc2ccccc2)C(=O)N[C@@H](Cc2ccccc2)C(=O)N[C@H](Cc2c[nH]c3ccccc23)C(=O)N[C@@H](CCCCN)C(=O)N[C@@H]([C@@H](C)O)C(=O)N1 (H-[dF]CF[dW]KTC-{Threoninol(2S,3R)}; disulfide 2-7)",
    "Ki": "Not Active"
  },
  {
    "compound": "CCCC(CCC)C(=O)O",
    "Ki": "Not Active"
  },
  {
    "compound": "C#C[C@]1(OC(C)=O)CC[C@H]2[C@@H]3CCC4=CC(=O)CC[C@@H]4[C@H]3CC[C@@]21C [NORETHINDRONE ACETATE]",
    "Ki": "Not Active"
  },
  {
    "compound": "Cc1nccn1CC1CCc2c(c3ccccc3n2C)C1=O (configuration not stated)",
    "Ki": "Not Active"
  },
  {
    "compound": "COc1cc(NS(=O)(=O)c2ccc(N)cc2)nc(OC)n1",
    "Ki": "Not Active"
  },
  {
    "compound": "CC(=O)N1CCN(c2ccc(OCC3COC(Cn4ccnc4)(c4ccc(Cl)cc4Cl)O3)cc2)CC1 (configuration not stated)",
    "Ki": "Not Active"
  },
  {
    "compound": "CC[C@]1(O)C[C@@H]2CN(CCc3c([nH]c4ccccc34)[C@@](C(=O)OC)(c3cc4c(cc3OC)N(C)[C@H]3[C@@](O)(C(=O)OC)[C@H](OC(C)=O)[C@]5(CC)C=CCN6CC[C@]43[C@@H]65)C2)C1",
    "Ki": "Not Active"
  },
  {
    "compound": "CCN1CC(CCN2CCOCC2)C(c2ccccc2)(c2ccccc2)C1=O (configuration not stated)",
    "Ki": "Not Active"
  },
  {
    "compound": "O=NN(CCCl)C(=O)NCCCl",
    "Ki": "Not Active"
  },
  {
    "compound": "O=c1ccc2ccccc2o1",
    "Ki": "Not Active"
  },
  {
    "compound": "O=C1CC[C@H](N2C(=O)c3ccccc3C2=O)C(=O)N1",
    "Ki": "Not Active"
  },
  {
    "compound": "N[C@H](CSC(=S)NCc1ccccc1)C(=O)O",
    "Ki": "Not Active"
  },
  {
    "compound": "C[C@]12CC[C@@H]3c4ccc(OC(=O)c5ccccc5)cc4CC[C@H]3[C@@H]1CC[C@@H]2O [ESTRADIOL BENZOATE]",
    "Ki": "Not Active"
  },
  {
    "compound": "CC(=O)N[C@@H]1[C@H](Oc2c3cc4cc2Oc2ccc(cc2Cl)[C@@H](O[C@@H]2O[C@@H](CO)[C@@H](O)[C@H](O)[C@@H]2NC(C)=O)[C@@H]2NC(=O)[C@H](NC(=O)[C@@H]4NC(=O)[C@H]4NC(=O)[C@@H](Cc5ccc(c(Cl)c5)O3)NC(=O)[C@H](N)c3ccc(O)c(c3)Oc3cc(O)cc4c3)c3ccc(O)c(c3)-c3c(O[C@H]4O[C@H](CO)[C@@H](O)[C@@H](O)[C@@H]4O)cc(O)cc3[C@@H](C(=O)O)NC2=O)O[C@@H](CO)[C@@H](O)[C@@H]1O",
    "Ki": "Not Active"
  },
  {
    "compound": "C[C@](O)(CS(=O)(=O)c1ccc(F)cc1)C(=O)Nc1ccc(C#N)c(C(F)(F)F)c1 [(R)-BICALUTAMIDE]",
    "Ki": "Not Active"
  },
  {
    "compound": "CC(C)[C@H]1CC[C@H](C(=O)N[C@H](Cc2ccccc2)C(=O)O)CC1 [NATEGLINIDE]",
    "Ki": "Not Active"
  },
  {
    "compound": "C[N+](C)(C)CCO.[Cl-] [CHOLINE CHLORIDE]",
    "Ki": "Not Active"
  },
  {
    "compound": "NC(=O)NO [HYDROXYUREA]",
    "Ki": "Not Active"
  },
  {
    "compound": "CO[C@H]1/C=C/O[C@@]2(C)Oc3c(C)c(O)c4c(c3C2=O)C2=NC3(CCN(CC(C)C)CC3)NC2=C(NC(=O)/C(C)=C\\C=C\\[C@H](C)[C@H](O)[C@@H](C)[C@@H](O)[C@@H](C)[C@H](OC(C)=O)[C@@H]1C)C4=O",
    "Ki": "Not Active"
  },
  {
    "compound": "CC(C(=O)O)c1cccc(C(=O)c2ccccc2)c1 (configuration not stated)",
    "Ki": "Not Active"
  },
  {
    "compound": "C[C@]12CC[C@@H]3c4ccc(O)cc4CC[C@H]3[C@@H]1CC[C@@H]2O",
    "Ki": "Not Active"
  },
  {
    "compound": "CN1C(=O)COc2c(C(=O)NC3CN4CCC3CC4)cc(Cl)cc21 (configuration not stated)",
    "Ki": "Not Active"
  },
  {
    "compound": "CC(=O)OCC(=O)[C@@]1(O)CC[C@H]2[C@@H]3CCC4=CC(=O)CC[C@]4(C)[C@H]3C(=O)C[C@@]21C [CORTISONE ACETATE]",
    "Ki": "Not Active"
  }
]
